target: Mannose-6-phosphate isomerase (Homo sapiens); assay: MPI enzyme activity inhibition – biochemical, fluorescence intensity, coupled assay, primary screen (AID 1209)
Sequence (P34949 whole entry): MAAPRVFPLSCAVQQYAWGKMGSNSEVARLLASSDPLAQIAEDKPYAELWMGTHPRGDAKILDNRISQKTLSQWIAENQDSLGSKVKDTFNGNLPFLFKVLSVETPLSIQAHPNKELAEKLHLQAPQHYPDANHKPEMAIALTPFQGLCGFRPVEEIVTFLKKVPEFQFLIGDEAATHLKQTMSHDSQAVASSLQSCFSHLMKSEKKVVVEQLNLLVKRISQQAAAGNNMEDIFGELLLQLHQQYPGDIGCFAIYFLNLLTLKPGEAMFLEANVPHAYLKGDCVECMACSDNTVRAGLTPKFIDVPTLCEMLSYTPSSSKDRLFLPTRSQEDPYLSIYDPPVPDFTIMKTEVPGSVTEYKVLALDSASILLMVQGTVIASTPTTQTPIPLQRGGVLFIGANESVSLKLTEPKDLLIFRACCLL
The source made the active and inactive calls.
Let's look at some molecules and their measured IC50.
ASSAY METRIC: IC50

[[record]]
structure_smiles_string = "CC(=O)NNC(=O)c1sc(=S)n2c1[nH]c(=O)c1sccc12"
assay_metric = "IC50"
readout_value = "> 50 µM (not active)"

[[record]]
structure_smiles_string = "O=C1CCNc2cc3ccccc3cc21"
assay_metric = "IC50"
readout_value = "23.2 µM (active)"

[[record]]
structure_smiles_string = "Nc1nnc(S)n1N=C1C(=O)Nc2ccccc21"
assay_metric = "IC50"
readout_value = "30 µM (active)"

[[record]]
structure_smiles_string = "CN(Cc1c(O)ccc2c1oc(=O)c1ccccc12)C1CCCCC1"
assay_metric = "IC50"
readout_value = "5.12 µM (active)"


###

target: Peroxisome proliferator-activated receptor gamma/Nuclear receptor coactivator 3 (Homo sapiens, UniProt P37231); experiment: TR-FRET dose response biochemical High Throughput Screening assay for agonists of the steroid receptor coactivator 3 (SRC-3) recruitment by the peroxisome proliferator-activated receptor gamma (PPAR gamma): non-selective agonists. [Related pubchem assays: 1301 (Confirmation screen.), 1048 (Primary screen.)]; format: functional
Sequence (P37231 whole entry): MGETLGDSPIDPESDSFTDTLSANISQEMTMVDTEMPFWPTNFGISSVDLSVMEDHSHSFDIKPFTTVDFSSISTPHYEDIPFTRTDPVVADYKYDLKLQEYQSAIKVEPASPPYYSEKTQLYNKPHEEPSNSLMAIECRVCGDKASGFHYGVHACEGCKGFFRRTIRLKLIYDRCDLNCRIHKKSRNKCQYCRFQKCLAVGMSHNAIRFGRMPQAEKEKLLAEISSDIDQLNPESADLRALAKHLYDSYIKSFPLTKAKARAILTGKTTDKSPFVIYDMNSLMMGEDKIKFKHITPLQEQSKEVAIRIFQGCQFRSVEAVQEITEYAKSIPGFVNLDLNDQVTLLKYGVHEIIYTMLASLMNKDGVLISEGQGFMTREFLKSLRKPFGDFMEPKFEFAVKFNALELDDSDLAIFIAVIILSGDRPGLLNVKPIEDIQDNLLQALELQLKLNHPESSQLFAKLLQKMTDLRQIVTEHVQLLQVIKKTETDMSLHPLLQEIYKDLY
Sequence (Q9Y6Q9 whole entry, further chain): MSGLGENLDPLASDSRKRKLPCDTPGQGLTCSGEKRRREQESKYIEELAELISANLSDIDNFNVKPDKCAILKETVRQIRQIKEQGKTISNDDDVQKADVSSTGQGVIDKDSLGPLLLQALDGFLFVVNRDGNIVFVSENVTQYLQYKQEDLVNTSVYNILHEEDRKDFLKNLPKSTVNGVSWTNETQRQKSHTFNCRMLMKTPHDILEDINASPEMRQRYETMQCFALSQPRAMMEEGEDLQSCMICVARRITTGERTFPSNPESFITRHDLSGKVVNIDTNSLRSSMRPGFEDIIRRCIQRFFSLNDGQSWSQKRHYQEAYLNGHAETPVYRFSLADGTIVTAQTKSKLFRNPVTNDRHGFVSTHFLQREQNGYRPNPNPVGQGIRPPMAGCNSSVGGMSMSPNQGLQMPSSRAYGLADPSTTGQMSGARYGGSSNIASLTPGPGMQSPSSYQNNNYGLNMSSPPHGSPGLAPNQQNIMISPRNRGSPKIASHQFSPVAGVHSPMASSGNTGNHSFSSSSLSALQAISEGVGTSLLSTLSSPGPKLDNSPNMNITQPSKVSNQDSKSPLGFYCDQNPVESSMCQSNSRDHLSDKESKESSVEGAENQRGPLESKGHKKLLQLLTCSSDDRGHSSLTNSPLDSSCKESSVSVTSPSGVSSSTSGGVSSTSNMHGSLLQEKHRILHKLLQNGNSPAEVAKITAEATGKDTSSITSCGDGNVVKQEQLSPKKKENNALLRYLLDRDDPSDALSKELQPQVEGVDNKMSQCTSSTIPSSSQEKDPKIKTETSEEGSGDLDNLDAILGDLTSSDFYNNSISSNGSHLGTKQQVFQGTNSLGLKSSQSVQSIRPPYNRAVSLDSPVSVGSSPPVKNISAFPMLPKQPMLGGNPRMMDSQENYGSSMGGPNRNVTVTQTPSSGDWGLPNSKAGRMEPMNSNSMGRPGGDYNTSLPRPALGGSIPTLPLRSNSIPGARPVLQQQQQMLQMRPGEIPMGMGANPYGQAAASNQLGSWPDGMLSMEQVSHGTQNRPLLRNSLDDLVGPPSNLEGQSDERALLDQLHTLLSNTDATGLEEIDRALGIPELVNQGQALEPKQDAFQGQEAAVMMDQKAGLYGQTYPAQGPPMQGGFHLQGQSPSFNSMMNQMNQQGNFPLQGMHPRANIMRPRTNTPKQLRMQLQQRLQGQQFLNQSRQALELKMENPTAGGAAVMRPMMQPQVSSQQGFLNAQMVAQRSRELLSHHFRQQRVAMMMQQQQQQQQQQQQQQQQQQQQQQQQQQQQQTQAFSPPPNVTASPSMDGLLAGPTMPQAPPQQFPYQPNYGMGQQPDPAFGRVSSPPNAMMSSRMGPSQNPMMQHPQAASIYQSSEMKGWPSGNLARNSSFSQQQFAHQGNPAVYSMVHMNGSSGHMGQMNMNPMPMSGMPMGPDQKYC
ASSAY METRIC: EC50

[[record]]
compound = "Cc1cc2cc(CNC(=O)c3cc4ccccc4o3)ccc2n1C"
readout_value = "19.2 µM (not active)"

[[record]]
compound = "Cn1c(=O)cc(SCC(=O)NCC2CCCO2)c2ccc(Cl)cc21 (stereo not given)"
readout_value = "> 79.4 µM (not active)"

[[record]]
compound = "CCOC(=O)c1sc(NC(=O)c2ccco2)nc1-c1ccccc1"
readout_value = "> 79.4 µM (not active)"

[[record]]
compound = "COC(=O)Cc1c(C)c2c(O)cc(C)cc2oc1=O"
readout_value = "> 79.4 µM (not active)"

[[record]]
compound = "Clc1cccc(-c2ccc(/C=N/c3ccc(N4CCOCC4)cc3)o2)c1"
readout_value = "> 79.4 µM (not active)"


###

target: UniProt P33261; assay: Cytochrome panel assay with activity outcomes. Panel member name: p450-cyp2c19 Compounds with AC50 equal or less than 10 uM are considered active; type: functional; details: read-out: AC50
Sequence (P33261 whole entry): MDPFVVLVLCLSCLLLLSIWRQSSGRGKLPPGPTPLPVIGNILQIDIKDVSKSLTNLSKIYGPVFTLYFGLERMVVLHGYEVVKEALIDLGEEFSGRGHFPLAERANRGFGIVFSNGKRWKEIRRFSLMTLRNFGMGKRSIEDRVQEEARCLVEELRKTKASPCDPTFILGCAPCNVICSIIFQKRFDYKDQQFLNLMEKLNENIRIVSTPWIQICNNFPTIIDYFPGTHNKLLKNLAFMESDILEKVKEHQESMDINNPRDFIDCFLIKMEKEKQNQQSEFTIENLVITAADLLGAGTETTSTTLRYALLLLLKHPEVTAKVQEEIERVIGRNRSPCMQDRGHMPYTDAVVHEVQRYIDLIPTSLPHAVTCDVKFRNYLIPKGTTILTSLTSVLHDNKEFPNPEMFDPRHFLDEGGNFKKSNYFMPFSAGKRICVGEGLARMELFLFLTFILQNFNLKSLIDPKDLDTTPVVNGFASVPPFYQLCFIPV
ASSAY METRIC: AC50

[[record]]
molecule = "CCOC(=O)C1=C(O)/C(=C\\c2ccc(OC)c(OC)c2)N=C1C"
assay_metric = "AC50"
readout_value = "39.8 µM (inconclusive)"

[[record]]
molecule = "Nc1cc(-c2nnn[nH]2)ccc1F"
assay_metric = "AC50"
readout_value = "28.2 µM (inconclusive)"

[[record]]
molecule = "CCOC(=O)N1CCN(Cc2nc3c(c(=O)[nH]c(=O)n3C)n2Cc2ccccc2C)CC1"
assay_metric = "AC50"
readout_value = "20 µM (inconclusive)"

[[record]]
molecule = "COC(=O)c1sccc1NC(=O)c1cc(-c2ccc(C)cc2C)nc2ccccc12"
assay_metric = "AC50"
readout_value = "3.55 µM (inconclusive)"

[[record]]
molecule = "COCCNC(=O)c1sc2nc(-c3ccccc3)cn2c1C"
assay_metric = "AC50"
readout_value = "20 µM (inconclusive)"

[[record]]
molecule = "Cc1noc(C)c1-c1cc(Nc2ccccc2)ncn1"
assay_metric = "AC50"
readout_value = "20 µM (inconclusive)"

[[record]]
molecule = "C[C@](O)(C(=O)Nc1ccc(S(=O)(=O)c2ccccc2)cc1)C(F)(F)F"
assay_metric = "AC50"
readout_value = "6.31 µM (inconclusive)"

[[record]]
molecule = "N#Cc1cccc(-c2nc(NCCN3CCOCC3)c3ccccc3n2)c1"
assay_metric = "AC50"
readout_value = "15.8 µM (inconclusive)"

[[record]]
molecule = "NC1=NC(=O)/C(=C/c2cccs2)S1"
assay_metric = "AC50"
readout_value = "25.1 µM (inconclusive)"

[[record]]
molecule = "O=c1c(-c2ccccc2)nc2cnc(N3CCNCC3)nc2n1C1CC1"
assay_metric = "AC50"
readout_value = "39.8 µM (inconclusive)"

[[record]]
molecule = "O=C(NCCc1cccs1)C1CC(c2c(Cl)cccc2Cl)=NO1 (stereo unspecified)"
assay_metric = "AC50"
readout_value = "0.282 µM (inconclusive)"

[[record]]
molecule = "O=C(COc1ccc2ccccc2c1)N1CCN(C(=O)c2cccnc2)CC1"
assay_metric = "AC50"
readout_value = "15.8 µM (inconclusive)"

[[record]]
molecule = "CC(C)OC(=O)CSc1nc(-c2ccc(F)cc2)nc2ccc(F)cc12"
assay_metric = "AC50"
readout_value = "0.112 µM (inconclusive)"

[[record]]
molecule = "CCCS(=O)(=O)N1CCCC(C(=O)NCc2cccnc2)C1 (stereo unspecified)"
assay_metric = "AC50"
readout_value = "15.8 µM (inconclusive)"

[[record]]
molecule = "COc1cc2c(c(O)c1OC)C(=O)C(OC)CCC2 (stereo unspecified)"
assay_metric = "AC50"
readout_value = "6.31 µM (inconclusive)"

[[record]]
molecule = "COc1ccc(CNCCC(c2ccc(OC(C)C)cc2)C(C)C)cc1OC (stereo unspecified)"
assay_metric = "AC50"
readout_value = "10 µM (inconclusive)"

[[record]]
molecule = "O=C(Nc1ccccc1N1CCOCC1)c1cnccn1"
assay_metric = "AC50"
readout_value = "0.0398 µM (inconclusive)"

[[record]]
molecule = "Cc1sc2ncnc(OCC(=O)NC(C)C)c2c1C"
assay_metric = "AC50"
readout_value = "20 µM (inconclusive)"

[[record]]
molecule = "CCOc1ccc(C(C)=O)cc1N1C(=O)C2C3C=CC(C3=C(C)C)C2C1=O (stereo unspecified)"
assay_metric = "AC50"
readout_value = "25.1 µM (inconclusive)"

[[record]]
molecule = "Cn1c(COc2nnc(-c3ccc(Cl)cc3)c3ccccc23)nc2ccccc21"
assay_metric = "AC50"
readout_value = "14.1 µM (inconclusive)"

[[record]]
molecule = "CCCC(=O)n1nc(-c2cccnc2)nc1N"
assay_metric = "AC50"
readout_value = "31.6 µM (inconclusive)"

